molecular target: NTRK2 (TRKB) (Homo sapiens); assay: Tyrosine kinase inhibition assay; assay type: biochemical
Sequence (Q16620 32-822): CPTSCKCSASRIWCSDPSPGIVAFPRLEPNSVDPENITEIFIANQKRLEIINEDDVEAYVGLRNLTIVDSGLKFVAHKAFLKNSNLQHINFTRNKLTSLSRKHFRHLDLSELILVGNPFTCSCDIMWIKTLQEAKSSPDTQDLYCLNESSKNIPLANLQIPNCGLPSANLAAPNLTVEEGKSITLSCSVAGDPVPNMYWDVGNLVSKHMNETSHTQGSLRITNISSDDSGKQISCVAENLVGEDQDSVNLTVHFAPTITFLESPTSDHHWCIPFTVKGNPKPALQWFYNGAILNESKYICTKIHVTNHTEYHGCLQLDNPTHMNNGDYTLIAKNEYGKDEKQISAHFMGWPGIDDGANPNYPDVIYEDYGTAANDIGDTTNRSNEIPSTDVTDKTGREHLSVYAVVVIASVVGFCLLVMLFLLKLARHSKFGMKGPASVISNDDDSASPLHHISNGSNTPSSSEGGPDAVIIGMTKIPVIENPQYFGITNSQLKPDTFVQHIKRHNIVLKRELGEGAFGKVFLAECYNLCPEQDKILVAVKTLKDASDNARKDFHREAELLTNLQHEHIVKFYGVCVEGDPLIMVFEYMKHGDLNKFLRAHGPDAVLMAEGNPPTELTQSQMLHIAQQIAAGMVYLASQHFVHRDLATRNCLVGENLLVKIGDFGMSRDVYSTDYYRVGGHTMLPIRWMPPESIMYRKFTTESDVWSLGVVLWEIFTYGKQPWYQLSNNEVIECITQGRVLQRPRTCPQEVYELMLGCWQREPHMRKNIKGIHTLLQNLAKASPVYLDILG
Property Measured: IC50 (nM)
Numbers only here, please. The scale is nM.

Input line: Give reported IC50 value for COc1cc2nccc(Oc3ccc(NC(=O)C4(C(=O)Nc5ccc(F)cc5)CC4)cc3)c2cc1OC [Cabozantinib, reference compound]
Output line: 53.3

====

molecular target: EPHB1 (Homo sapiens); assay: Tyrosine kinase inhibition assay; type: biochemical; details: single concentration 1.0 μM, read-out: percent inhibition
Sequence (P54762 18-984): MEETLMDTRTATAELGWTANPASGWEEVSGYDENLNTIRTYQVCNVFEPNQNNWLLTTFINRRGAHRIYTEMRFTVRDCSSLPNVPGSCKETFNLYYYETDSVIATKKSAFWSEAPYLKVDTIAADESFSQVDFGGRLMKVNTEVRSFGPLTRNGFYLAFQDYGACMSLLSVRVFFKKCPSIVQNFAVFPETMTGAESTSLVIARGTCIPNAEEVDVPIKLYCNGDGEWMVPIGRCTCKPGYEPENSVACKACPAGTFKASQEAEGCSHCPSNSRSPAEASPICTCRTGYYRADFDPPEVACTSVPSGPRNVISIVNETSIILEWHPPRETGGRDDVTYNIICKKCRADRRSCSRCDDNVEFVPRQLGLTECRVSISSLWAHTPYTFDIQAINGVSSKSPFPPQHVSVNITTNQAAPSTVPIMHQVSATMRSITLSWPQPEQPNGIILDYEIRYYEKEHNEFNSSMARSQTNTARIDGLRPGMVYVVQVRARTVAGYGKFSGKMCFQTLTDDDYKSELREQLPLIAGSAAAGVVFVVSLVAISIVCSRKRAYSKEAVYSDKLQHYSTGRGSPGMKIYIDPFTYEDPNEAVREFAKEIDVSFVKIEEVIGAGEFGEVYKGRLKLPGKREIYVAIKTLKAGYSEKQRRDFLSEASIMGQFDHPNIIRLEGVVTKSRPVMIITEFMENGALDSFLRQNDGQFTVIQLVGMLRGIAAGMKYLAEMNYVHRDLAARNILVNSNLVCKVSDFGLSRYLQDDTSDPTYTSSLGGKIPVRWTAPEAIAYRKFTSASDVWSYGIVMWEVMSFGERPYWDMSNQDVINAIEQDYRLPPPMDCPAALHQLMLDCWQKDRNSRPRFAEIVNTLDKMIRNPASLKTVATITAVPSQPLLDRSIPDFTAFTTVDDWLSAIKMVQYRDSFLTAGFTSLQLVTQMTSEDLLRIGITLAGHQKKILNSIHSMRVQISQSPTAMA
Assign inhibition at 1 µM to each entry below.
Give the value, in units of %, as a plain number.

Input line: For COc1cc2nccc(Oc3ccc(NC(=O)C4(NC(=O)c5ccc(F)cc5)CC4)cc3F)c2cc1Oc1c(F)cc(N)cc1F [Cbo-14] , write its inhibition at 1 µM.
Output line: 75

Input line: Quote inhibition at 1 µM reported for COc1cc2nccc(Oc3ccc(NC(=O)C4(C(=O)Nc5ccc(F)cc5)CC4)cc3)c2cc1OC [Cabozantinib, reference compound] please.
Output line: 99

Input line: Output inhibition at 1 µM of COc1cc2nccc(Oc3ccc(NC(=O)C4(NC(=O)c5ccc(F)cc5)CC4)cc3F)c2cc1OC [Cbo-02]
Output line: 37

Input line: For the compound COc1cc2nccc(Oc3ccc(NC(=O)C4(C(=O)Nc5ccc(F)cc5)CC4)cc3F)c2cc1Oc1ccc(N)cc1F [Cbo-23] , give its measured inhibition at 1 µM value.
Output line: 99

Input line: Give me measured inhibition at 1 µM, please, for this compound: COc1cc2nccc(Oc3ccc(NC(=O)C4(NC(=O)c5ccc(F)cc5)CC4)cc3F)c2cc1Oc1ccc(N)cc1F [Cbo-10]
Output line: 74
